Molecular target: Glutathione reductase (Saccharomyces cerevisiae S288c, UniProt P41921)
Sequence (P41921 whole entry): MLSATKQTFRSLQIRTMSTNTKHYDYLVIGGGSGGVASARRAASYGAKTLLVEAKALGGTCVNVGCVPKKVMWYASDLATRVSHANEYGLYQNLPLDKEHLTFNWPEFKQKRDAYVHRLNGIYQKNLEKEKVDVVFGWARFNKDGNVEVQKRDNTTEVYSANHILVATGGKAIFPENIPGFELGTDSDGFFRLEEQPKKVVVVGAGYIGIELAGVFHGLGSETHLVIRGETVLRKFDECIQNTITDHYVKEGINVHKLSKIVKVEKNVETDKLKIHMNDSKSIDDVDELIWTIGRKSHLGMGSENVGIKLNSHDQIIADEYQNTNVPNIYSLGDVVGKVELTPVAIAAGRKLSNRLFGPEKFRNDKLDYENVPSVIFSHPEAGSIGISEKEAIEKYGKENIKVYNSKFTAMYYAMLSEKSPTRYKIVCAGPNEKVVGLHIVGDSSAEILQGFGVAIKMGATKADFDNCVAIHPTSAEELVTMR
Test: Inhibition of yeast glutathione reductase done for 30 minutes in pH 7.4 at 25 degree C with compound (0.2 mM)
endpoint: pIC50
To interpret pIC50, take it as minus log10 of a concentration measured in moles per litre.

Summary for this molecule, CC(=O)NC(CSC(=O)Nc1ccc(NC(=O)SCC(NC(C)=O)C(=O)O)cc1)C(=O)O (stereo unspecified) : pIC50 is 4.30

====

Molecular target: Glutathione reductase (Saccharomyces cerevisiae S288c, UniProt P41921)
Assay: Inhibition of yeast glutathione reductase over 30 minutes pH 7.4 at 25 degree C
endpoint: IC50

// field: IC50; key: CC(=O)NC(CSC(=O)NC1CCC(CC2CCC(NC(=O)SCC(NC(C)=O)C(=O)O)CC2)CC1)C(=O)O (configuration not stated) ; value = 477 µM

For O=NN(CCCl)C(=O)NCCCl [CARMUSTINE] the molecule record lists IC50 as 441 µM

Per the record, CC(=O)NC(CSC(=O)NCc1ccc(NC(=O)SCC(NC(C)=O)C(=O)O)cc1)C(=O)O (configuration not stated) has IC50 of 117 µM
